target-desc: Gag-Pol polyprotein (Human immunodeficiency virus type 1 group M subtype B (isolate HXB2)) (UniProt P04585)
procedure-details: HIV-1 RT RNase H inhibitors, retest, confirmation, biochemical (AID 651)
measurement-setup: Recombinant RT RNase H, fluorescent RNA/DNA duplex cleavage; at 10 µM; active compounds read high
Screen size: about 1,000 compounds; about 390 (39%) were called active. Roughly 8% stayed inconclusive and do not appear here. A selection follows.
inhibition of 20% or higher: Satisfied. Under 20%: Not satisfied.

Worked examples follow.
{"compound": "c1ccc(Cc2nn3c(Cn4cnc5ccccc54)nnc3s2)cc1", "cat": "Satisfied"}
{"compound": "Fc1ccc(-c2nnc3sc(-c4ccc5c(c4)OCO5)nn23)cc1", "cat": "Satisfied"}
{"compound": "CN(c1ccccc1)c1ccc(/C=c2\\s/c(=C(/C#N)C(=O)C(C)(C)C)n(Cc3ccco3)c2=O)cc1", "cat": "Satisfied"}

*Q* Is inhibition for CCOc1ccc2[nH]c(=O)c(CN(CCCO)C(C)=O)cc2c1 at or above 20%?
*A* Not satisfied

*Q* Could you tell me if the measured inhibition of COc1ccc(Nc2oc(-c3ccccc3Cl)nc2C#N)cc1 reaches 20% or more?
*A* Not satisfied

*Q* Would you say Fc1ccc(-c2ccc(-c3nn4c(-c5ccco5)nnc4s3)o2)cc1 shows inhibition at minimum 20%?
*A* Satisfied

*Q* Does the reported inhibition for COC(=O)C1=C(C)NC2=C(C(=O)c3ccccc32)C1c1ccc(-c2ccc(C(=O)O)cc2)o1 (centres undefined) fall at or above the 20% mark?
*A* Not satisfied

*Q* API: above_or_equal(metric=inhibition, cutoff=20%) for item O=C(NCc1ccccn1)c1ccc2nc(-c3ccco3)c(-c3ccco3)nc2c1
*A* Not satisfied

*Q* Does inhibition meet or surpass 20% for CCC(C)(C)NC(=O)C(c1cccn1C)N(Cc1ccc(C)cc1)C(=O)Cn1nnc2ccccc21 (centres undefined) ?
*A* Not satisfied

*Q* Given the entry CCc1nnc(NC(=O)CSc2nnc(COc3ccc(C#N)cc3)n2-c2ccccc2)s1 , answer whether its inhibition meets or surpasses 20%.
*A* Not satisfied
